pKd: −log10 of the molar value.
Here's a batch of compounds along with measured pKd for purified N-terminal HSP90a (Homo sapiens).
experimental readout: pKd

[[record]]
smiles = "CCNC(=O)c1nnc(-c2cc(C(C)C)c(O)cc2O)n1-c1ccc(OC2CCN(C(=O)CCNC(=O)[C@@H](CCC(=O)O)NC(=O)[C@@H](CCC(=O)O)NC(=O)[C@@H](CCC(=O)O)NC(=O)COCCOCCNC(=O)[C@H](CCCCNC(=O)CC[C@H](C(=O)O)N3CCN4CCN5CCN(CC3)CC(=O)[O][Lu]([O]C(=O)C5)[O]C(=O)C4)NC(=O)CCCc3ccc(I)cc3)CC2)cc1"
readout_number = 9.15

[[record]]
smiles = "CCNC(=O)c1nnc(-c2cc(C(C)C)c(O)cc2O)n1-c1ccc(CN2CCN(C(=O)CCNC(=O)[C@@H](CCC(=O)N3CCN(Cc4ccc(-n5c(C(=O)NCC)nnc5-c5cc(C(C)C)c(O)cc5O)cc4)CC3)NC(=O)CCNC(=O)[C@@H](CCC(=O)O)NC(=O)[C@@H](CCC(=O)O)NC(=O)[C@@H](CCC(=O)O)NC(=O)COCCOCCNC(=O)CNC(=O)[C@H](CCCCN)NC(=O)CNC(=O)CC[C@H](C(=O)O)N3CCN4CCN5CCN(CC3)CC(=O)[O][Lu]([O]C(=O)C5)[O]C(=O)C4)CC2)cc1"
readout_number = 9.33

[[record]]
smiles = "CCNC(=O)c1nnc(-c2cc(C(C)C)c(O)cc2O)n1-c1ccc(CN2CCN(C(=O)CCNC(=O)[C@@H](CCC(=O)N3CCN(Cc4ccc(-n5c(C(=O)NCC)nnc5-c5cc(C(C)C)c(O)cc5O)cc4)CC3)NC(=O)CCNC(=O)[C@@H](CCC(=O)O)NC(=O)[C@@H](CCC(=O)O)NC(=O)[C@@H](CCC(=O)O)NC(=O)COCCOCCNC(=O)CC[C@H](C(=O)O)N3CCN4CCN5CCN(CC3)CC(=O)[O][Lu]([O]C(=O)C5)[O]C(=O)C4)CC2)cc1"
readout_number = 9.35

[[record]]
smiles = "CCNC(=O)c1nnc(-c2cc(C(C)C)c(O)cc2O)n1-c1ccc2c(ccn2CCC2CCN(C(=O)CC[C@H](NC(=O)CC[C@H](C(=O)O)N3CCN4CCN5CCN(CC3)CC(=O)[O][Lu]([O]C(=O)C5)[O]C(=O)C4)C(=O)N3CCC(CCn4ccc5cc(-n6c(C(=O)NCC)nnc6-c6cc(C(C)C)c(O)cc6O)ccc54)CC3)CC2)c1"
readout_number = 9.11

[[record]]
smiles = "CCNC(=O)c1nnc(-c2cc(C(C)C)c(O)cc2O)n1-c1ccc(OC2CCN(C(=O)CCNC(=O)[C@@H](CCC(=O)N3CCC(Oc4ccc(-n5c(C(=O)NCC)nnc5-c5cc(C(C)C)c(O)cc5O)cc4)CC3)NC(=O)CC[C@H](C(=O)O)N3CCN4CCN5CCN(CC3)CC(=O)[O][Lu]([O]C(=O)C5)[O]C(=O)C4)CC2)cc1"
readout_number = 9.35

[[record]]
smiles = "CCNC(=O)c1nnc(-c2cc(C(C)C)c(O)cc2O)n1-c1ccc(CN2CCN(C(=O)CCNC(=O)[C@@H](CCC(=O)N3CCN(Cc4ccc(-n5c(C(=O)NCC)nnc5-c5cc(C(C)C)c(O)cc5O)cc4)CC3)NC(=O)CCNC(=O)[C@@H](CCC(=O)O)NC(=O)[C@@H](CCC(=O)O)NC(=O)[C@@H](CCC(=O)O)NC(=O)COCCOCCNC(=O)[C@H](Cc3ccccc3)NC(=O)CNC(=O)CNC(=O)CC[C@H](C(=O)O)N3CCN4CCN5CCN(CC3)CC(=O)[O][Lu]([O]C(=O)C5)[O]C(=O)C4)CC2)cc1"
readout_number = 9.32

